Listed here: items and their measured glycan array binding signal (z-score).
# TARGET OF ASSAY: Glc(a1-4)Glc(a1-4)Glc(a1-4)Glc
# ASSAY NOTES: glycan array binding signal (z-score within array); higher = stronger binding
# EXPERIMENTAL CONDITIONS: glycan notation: IUPAC condensed, linker removed
This excerpt belongs to a sample that is enriched for the strongest signals.
// response body must contain only the number

// known answers, use as guide
NPA (Narcissus pseudonarcissus), C0HM45 (protein) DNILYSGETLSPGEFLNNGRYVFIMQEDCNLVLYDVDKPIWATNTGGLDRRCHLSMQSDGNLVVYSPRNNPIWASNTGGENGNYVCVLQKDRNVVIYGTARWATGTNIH : -0.139
Strep tagII-anxA1 (Homo sapiens), P04083 (protein) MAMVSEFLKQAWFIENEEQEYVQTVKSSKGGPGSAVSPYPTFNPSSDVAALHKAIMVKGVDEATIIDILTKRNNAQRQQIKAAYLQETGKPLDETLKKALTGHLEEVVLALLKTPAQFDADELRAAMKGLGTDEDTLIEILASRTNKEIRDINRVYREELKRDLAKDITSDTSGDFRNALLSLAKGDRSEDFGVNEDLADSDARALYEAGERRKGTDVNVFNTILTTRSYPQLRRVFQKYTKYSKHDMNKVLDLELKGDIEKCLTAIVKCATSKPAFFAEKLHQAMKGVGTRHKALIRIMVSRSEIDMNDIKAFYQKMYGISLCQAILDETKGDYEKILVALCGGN : 3.56
Tamarinin (protein) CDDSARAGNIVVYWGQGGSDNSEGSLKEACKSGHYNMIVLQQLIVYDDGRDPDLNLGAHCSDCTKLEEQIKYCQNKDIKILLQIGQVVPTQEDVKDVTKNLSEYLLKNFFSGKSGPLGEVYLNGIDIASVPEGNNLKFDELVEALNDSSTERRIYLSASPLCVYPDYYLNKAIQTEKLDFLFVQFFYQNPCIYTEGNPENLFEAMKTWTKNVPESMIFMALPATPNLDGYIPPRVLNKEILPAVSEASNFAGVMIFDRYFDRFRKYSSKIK : -0.232
Clrb (Mus musculus) (protein) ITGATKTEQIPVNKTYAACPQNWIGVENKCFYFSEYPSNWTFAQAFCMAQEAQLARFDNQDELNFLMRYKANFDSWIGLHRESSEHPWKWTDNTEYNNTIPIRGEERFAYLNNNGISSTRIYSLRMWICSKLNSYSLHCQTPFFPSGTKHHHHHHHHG : -0.498
EULS2 M2 (Oryza sativa) (protein) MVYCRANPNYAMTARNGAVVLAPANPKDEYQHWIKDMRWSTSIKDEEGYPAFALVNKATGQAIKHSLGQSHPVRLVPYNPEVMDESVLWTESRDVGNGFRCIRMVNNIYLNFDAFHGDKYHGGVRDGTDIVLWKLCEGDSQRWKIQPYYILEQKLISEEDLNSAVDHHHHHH : -0.217

Consider the binder CSA (Cytisus scoparius), P29257 (protein) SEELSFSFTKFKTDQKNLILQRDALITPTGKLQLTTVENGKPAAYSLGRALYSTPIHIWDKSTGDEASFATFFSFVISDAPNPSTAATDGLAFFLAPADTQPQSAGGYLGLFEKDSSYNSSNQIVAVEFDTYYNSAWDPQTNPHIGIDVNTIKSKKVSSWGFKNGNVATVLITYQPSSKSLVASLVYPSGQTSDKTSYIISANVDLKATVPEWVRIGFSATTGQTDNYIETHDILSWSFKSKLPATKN and give its measured glycan array binding signal (z-score).
-0.19

Consider the binder VLRB.aGPA.23-GCN4-biotin (Petromyzon marinus) (protein) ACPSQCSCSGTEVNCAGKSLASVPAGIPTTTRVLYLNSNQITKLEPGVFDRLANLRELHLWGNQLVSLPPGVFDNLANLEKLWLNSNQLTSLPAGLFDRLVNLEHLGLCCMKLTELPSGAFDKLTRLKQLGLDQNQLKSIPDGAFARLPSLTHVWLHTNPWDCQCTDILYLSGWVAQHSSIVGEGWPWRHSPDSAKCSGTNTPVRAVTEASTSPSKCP and give its measured glycan array binding signal (z-score).
-0.064
